# Tested on: Vitex extra cellular peroxidase
# Format: biochemical, Vitex negundo
# Condition info: result in words
Measured endpoint: Effect on Vitex peroxidase activity (inhibitor / enhancer / no change)

Recorded Effect on Vitex peroxidase activity (inhibitor / enhancer / no change), per entry:
{"Compound": "O=S(=O)([O-])[O-].[Mn+2]", "Experimental value": "enhancers"}
{"Compound": "[Ca+2].[Cl-].[Cl-]", "Experimental value": "no change in activity"}
{"Compound": "O=S(=O)([O-])[O-].[Zn+2]", "Experimental value": "enhancers"}
{"Compound": "[N-]=[N+]=[N-].[Na+] [NaN3, sodium azide]", "Experimental value": "enhancers"}

// next item, Effect on Vitex peroxidase activity (inhibitor / enhancer / no change) requested
-- ask Would you mind telling me what Effect on Vitex peroxidase activity (inhibitor / enhancer / no change) value was observed for O=S(=O)([O-])[O-].[Mg+2] ?
-- reply no change in activity
